- Test system: EZH2 target genes (KRT17, FBXO32) in MDA-MB-231 cells
- method-summary: Real-time RT-PCR cell based assay for up-regulation of H3K27me3 silenced genes
- measurement-context: MDA-MB-231, 10 μM, 48 h, normalised to GAPDH

{"compound": "COc1cc2nc(N3CCCCC3)nc(NC3CCN(Cc4ccccc4)CC3)c2cc1OC [HKMTi-1-022]", "KRT17 RNA levels": "up-regulate"}
{"compound": "COc1cc2nc(N3CCN(C)CC3)nc(NC3CCN(Cc4ccccc4)CC3)c2cc1OC [HKMTi-1-005]", "KRT17 RNA levels": "up-regulate"}
{"compound": "COc1cc2nc(N3CCN(c4ccccn4)CC3)nc(NC3CCN(Cc4ccccc4)CC3)c2cc1OC [HKMTi-1-011]", "KRT17 RNA levels": "up-regulate"}
